Source: the supplement of paper PMC10567573

B1: HDAC6 (parent)
chain: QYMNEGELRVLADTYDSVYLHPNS

# Variants of: B1
# ASSAY_TEXT: protein stability index of a GFP-peptide fusion (GPS, HEK-293T) (PSI 1-6); higher = more stable;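 note: lentivirally expressed fusions sorted by FACS into six bins by GFP to DsRed ratio, PSI derived from sequencing read proportions per bin multiplied by bin number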
# CONDITION_PARAMETERS: c terminus: a fixed tail appended
READOUT_TYPE: protein stability index
# print the numeric value only

VARIANT_ID	protein stability index
E7G	3.04
N4H	2.23
V10D	3.61
L20R	2.06
Y2D	3.19

# query: protein stability index of entry E5K
1.9

# query: protein stability index of entry N23I
2.31

# query: protein stability index of entry L8A
2.53

# query: protein stability index of entry Y15N
2.65

# query: protein stability index of entry T14P
2.53

# query: protein stability index of entry V18A
2.56

# query: protein stability index of entry Y15T
2.82

# query: protein stability index of entry L20P
2.68

# query: protein stability index of entry L11M
2.98

# query: protein stability index of entry Y15Q
2.95

# query: protein stability index of entry Y19A
2.49

# query: protein stability index of entry L20T
2.88

# query: protein stability index of entry A12M
3.21

# query: protein stability index of entry V18Q
3.02

# query: protein stability index of entry Y2V
3.27

# query: protein stability index of entry Y19K
1.71

# query: protein stability index of entry L8V
3.68
